# measuredOn: UniProt Q9HBX9
# Sequence (Q9HBX9 whole entry): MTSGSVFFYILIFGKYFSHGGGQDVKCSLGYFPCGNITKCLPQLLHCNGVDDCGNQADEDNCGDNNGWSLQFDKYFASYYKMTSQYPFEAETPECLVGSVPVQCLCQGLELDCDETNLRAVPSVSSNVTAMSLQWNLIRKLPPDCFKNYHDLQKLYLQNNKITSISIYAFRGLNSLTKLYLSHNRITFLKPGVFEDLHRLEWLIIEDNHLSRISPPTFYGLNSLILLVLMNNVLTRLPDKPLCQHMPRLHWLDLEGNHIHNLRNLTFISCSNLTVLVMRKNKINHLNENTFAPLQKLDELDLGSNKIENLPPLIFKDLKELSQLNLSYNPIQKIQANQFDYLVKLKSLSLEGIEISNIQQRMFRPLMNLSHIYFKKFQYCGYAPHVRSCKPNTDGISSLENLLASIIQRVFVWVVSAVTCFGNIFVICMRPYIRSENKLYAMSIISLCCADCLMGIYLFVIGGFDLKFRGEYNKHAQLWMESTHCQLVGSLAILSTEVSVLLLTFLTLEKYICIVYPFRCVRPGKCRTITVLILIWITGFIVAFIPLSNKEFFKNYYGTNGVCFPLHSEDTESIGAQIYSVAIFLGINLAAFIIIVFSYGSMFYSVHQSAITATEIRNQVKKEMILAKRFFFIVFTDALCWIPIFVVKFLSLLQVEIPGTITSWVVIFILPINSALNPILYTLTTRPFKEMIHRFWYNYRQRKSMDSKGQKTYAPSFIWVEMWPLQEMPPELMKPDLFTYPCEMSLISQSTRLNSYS
# measurementNotes: Agonist activity at RXFP1 receptor (unknown origin) expressed in HEK293 cells assessed as stimulation of cAMP production incubated for 30 mins by TR-FRET based HTRF assay relative to forskolin
# Type: functional, cell-based
Active and inactive are the calls of the source. No cut-off for these calls is given here.
measuredParameter: %max

Examples from the recorded data:
{"compound": "O=C(Nc1ccccc1C(=O)Nc1cccc(C(F)(F)F)c1)c1ccccc1Br", "%max": "78%"}
{"compound": "O=C(Nc1cccc(C(F)(F)F)c1)c1ccccc1OCCN1CCNCC1", "%max": "inactive"}
{"compound": "O=C(Nc1cccc(C(F)(F)F)c1)c1ccccc1NC(=O)c1ccccc1OCCN1CCOCC1", "%max": "98%"}
{"compound": "O=C(Nc1ccccc1F)c1ccccc1NC(=O)C1CCCCC1", "%max": "inactive"}
{"compound": "CCOc1ccccc1C(=O)Nc1ccccc1C(=O)Nc1cccc(SC(F)(F)F)c1", "%max": "98%"}

Data request: // output %max; input CCOc1ccccc1C(=O)Nc1ccccc1C(=O)Nc1cccc(-c2nnn[nH]2)c1 ; system UniProt Q9HBX9
Data returned: inactive

Data request: Print UniProt Q9HBX9 %max for O=C(Nc1ccccc1C(=O)Nc1cccc(C(F)(F)F)c1)c1cccc(C(F)(F)F)c1 .
Data returned: 95%

Data request: Jot down %max (UniProt Q9HBX9) of COc1ccc(C(=O)Nc2ccccc2C(=O)Nc2cccc(C(F)(F)F)c2)cc1 .
Data returned: 71%

Data request: For UniProt Q9HBX9, give %max of the listed compound: CCOc1ccccc1C(=O)Nc1ccccc1-c1nc2cc(C(F)(F)F)ccc2[nH]1
Data returned: 31%

Data request: Fill: %max (UniProt Q9HBX9) for this compound CC(=O)Nc1ccccc1C(=O)Nc1cccc(C(F)(F)F)c1
Data returned: 51%
